All values here come from patent US20260374817A1.

- method description: Solubility of LR12 in formulations / screening of solubility aids
- Format: physicochemical
- experimental conditions: screened at pH 5.5 and 6.5; only by adding lysine or arginine or histidine; read-out: solubility reached with positively charged solubility enhancing agents
reported endpoint: solubility

smiles	obs value
CSCC[C@H](NC(=O)[C@H](CS)NC(=O)CNC(=O)[C@H](Cc1ccc(O)cc1)NC(=O)[C@H](CCC(=O)O)NC(=O)CNC(=O)[C@H](C)NC(=O)[C@H](CC(=O)O)NC(=O)[C@H](CCC(=O)O)NC(=O)[C@H](CCC(=O)O)NC(=O)[C@H](CCC(N)=O)NC(=O)[C@@H](N)CC(C)C)C(N)=O	40 mg/mL
